# Experimental System: Sigma non-opioid intracellular receptor 1 (Rattus norvegicus, UniProt Q9R0C9)
# Sequence (Q9R0C9 whole entry): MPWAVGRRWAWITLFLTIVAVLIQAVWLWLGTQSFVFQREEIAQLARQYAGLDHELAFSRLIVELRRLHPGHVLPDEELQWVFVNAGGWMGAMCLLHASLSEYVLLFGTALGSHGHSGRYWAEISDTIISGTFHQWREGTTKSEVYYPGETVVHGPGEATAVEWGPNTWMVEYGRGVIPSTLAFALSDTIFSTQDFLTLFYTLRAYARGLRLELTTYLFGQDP
# Protocol Details: Displacement of [3H]pentazocine from sigma 1 receptor in rat brain membrane after 2.5 hrs by microbeta scintillation counting analysis
Recorded log10 Ki for the following compounds
Measured Metric: log10 Ki (log10 of the value in nM)

c1ccc(OCc2cc(OC[C@@H]3CCN3)no2)cc1 ... 1.52
c1ccc(OCc2cc(OC[C@@H]3CCCN3)on2)cc1 ... 0.62
c1ccc(OCc2cc(OC[C@@H]3CCCN3)no2)cc1 ... 0.61
Clc1cncc(OCc2cc(OC[C@@H]3CCN3)no2)c1 ... 2.01
c1ccc(OCc2cc(OC[C@@H]3CCN3)on2)cc1 ... 2.52

###

# Experimental System: Neuronal acetylcholine receptor; alpha2/beta4 (Rattus norvegicus, UniProt P12389+P12392)
# Sequence (P12389 whole entry): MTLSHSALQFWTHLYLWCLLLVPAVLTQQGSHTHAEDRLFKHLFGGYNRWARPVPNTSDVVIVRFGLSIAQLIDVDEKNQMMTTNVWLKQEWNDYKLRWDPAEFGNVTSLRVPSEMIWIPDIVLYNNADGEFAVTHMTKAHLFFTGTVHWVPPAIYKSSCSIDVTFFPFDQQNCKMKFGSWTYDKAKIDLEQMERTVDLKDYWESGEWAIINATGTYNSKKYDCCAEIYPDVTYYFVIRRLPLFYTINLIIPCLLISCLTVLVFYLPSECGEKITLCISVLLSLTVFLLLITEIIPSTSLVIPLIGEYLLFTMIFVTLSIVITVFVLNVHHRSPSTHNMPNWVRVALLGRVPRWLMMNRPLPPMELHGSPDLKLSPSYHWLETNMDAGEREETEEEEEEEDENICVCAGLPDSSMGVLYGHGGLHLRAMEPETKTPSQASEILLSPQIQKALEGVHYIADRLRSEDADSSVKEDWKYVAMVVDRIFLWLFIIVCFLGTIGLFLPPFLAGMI
# Sequence (P12392 whole entry): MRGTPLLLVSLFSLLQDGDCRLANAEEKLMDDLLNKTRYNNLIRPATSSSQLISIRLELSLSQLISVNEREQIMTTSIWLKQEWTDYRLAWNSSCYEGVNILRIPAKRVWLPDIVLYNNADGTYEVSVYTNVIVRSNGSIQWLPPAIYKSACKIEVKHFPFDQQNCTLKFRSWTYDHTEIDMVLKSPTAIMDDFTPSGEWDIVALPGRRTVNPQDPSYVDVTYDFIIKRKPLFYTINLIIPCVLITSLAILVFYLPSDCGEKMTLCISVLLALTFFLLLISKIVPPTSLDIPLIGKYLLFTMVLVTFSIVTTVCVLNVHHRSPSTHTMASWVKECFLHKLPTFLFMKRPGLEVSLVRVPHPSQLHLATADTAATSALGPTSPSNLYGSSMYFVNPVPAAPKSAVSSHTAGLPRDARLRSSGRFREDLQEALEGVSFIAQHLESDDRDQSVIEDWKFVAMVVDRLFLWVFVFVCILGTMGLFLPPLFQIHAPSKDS
# Protocol Details: Displacement of [3H]epibatidine from alpha2beta4 nAChR after 4 hrs by liquid scintillation counting analysis
Measured Metric: Ki (nM)

Clc1cncc(OCc2cc(OC[C@@H]3CCN3)no2)c1 ... 1820

###

# Experimental System: UniProtKB P07550
# Sequence (P07550 whole entry): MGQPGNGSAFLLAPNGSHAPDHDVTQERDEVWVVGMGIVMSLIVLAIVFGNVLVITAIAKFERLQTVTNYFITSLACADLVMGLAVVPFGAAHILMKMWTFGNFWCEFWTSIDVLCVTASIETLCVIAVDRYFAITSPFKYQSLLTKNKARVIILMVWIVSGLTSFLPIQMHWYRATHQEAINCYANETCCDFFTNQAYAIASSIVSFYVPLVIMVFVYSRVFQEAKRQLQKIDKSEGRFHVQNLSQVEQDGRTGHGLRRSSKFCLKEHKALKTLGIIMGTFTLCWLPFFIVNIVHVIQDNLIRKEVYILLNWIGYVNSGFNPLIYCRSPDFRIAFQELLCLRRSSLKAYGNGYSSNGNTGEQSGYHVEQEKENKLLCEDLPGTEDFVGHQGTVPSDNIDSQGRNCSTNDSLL
Measured Metric: Ki

c1ccc(OCc2cc(OC[C@@H]3CCCN3)no2)cc1 ... > 10 µM

###

# Experimental System: 5-hydroxytryptamine receptor 2A (Homo sapiens)
# Sequence (P28223 whole entry): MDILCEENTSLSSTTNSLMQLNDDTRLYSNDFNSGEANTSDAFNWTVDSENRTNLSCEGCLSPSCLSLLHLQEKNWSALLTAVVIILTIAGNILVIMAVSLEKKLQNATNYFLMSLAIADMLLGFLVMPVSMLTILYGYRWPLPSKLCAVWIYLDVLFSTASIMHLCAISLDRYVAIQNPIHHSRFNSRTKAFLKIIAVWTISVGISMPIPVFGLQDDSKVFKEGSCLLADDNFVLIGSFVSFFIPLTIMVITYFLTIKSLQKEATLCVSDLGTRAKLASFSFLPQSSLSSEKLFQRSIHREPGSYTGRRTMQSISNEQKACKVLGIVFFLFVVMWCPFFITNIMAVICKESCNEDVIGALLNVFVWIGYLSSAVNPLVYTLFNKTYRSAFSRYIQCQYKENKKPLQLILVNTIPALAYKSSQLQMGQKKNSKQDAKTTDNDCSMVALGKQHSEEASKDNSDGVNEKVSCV
# Protocol Details: Displacement of [3H]ketanserin from human recombinant 5-HT2A receptor after 1.5 hrs by microbeta scintillation counting analysis
Measured Metric: Ki (µM)

c1ccc(OCc2cc(OC[C@@H]3CCN3)no2)cc1 ... 6.4
c1ccc(OCc2cc(OC[C@@H]3CCCN3)no2)cc1 ... 4.41

###

# Experimental System: Neuronal acetylcholine receptor; alpha3/beta2 (Rattus norvegicus, UniProt P04757+P12390)
# Sequence (P04757 whole entry): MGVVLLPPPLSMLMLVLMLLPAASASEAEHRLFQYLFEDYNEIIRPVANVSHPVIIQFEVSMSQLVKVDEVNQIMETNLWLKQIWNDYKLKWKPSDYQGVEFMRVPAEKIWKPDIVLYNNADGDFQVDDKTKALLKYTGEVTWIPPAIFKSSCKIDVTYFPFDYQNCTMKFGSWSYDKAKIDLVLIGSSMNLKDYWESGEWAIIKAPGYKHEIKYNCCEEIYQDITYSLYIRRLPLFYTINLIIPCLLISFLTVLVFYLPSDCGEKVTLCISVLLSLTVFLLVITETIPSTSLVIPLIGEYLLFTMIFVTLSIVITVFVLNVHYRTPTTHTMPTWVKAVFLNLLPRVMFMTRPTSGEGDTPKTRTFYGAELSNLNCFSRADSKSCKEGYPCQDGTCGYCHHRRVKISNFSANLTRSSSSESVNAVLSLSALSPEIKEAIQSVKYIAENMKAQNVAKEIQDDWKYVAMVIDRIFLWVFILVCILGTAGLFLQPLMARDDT
# Sequence (P12390 whole entry): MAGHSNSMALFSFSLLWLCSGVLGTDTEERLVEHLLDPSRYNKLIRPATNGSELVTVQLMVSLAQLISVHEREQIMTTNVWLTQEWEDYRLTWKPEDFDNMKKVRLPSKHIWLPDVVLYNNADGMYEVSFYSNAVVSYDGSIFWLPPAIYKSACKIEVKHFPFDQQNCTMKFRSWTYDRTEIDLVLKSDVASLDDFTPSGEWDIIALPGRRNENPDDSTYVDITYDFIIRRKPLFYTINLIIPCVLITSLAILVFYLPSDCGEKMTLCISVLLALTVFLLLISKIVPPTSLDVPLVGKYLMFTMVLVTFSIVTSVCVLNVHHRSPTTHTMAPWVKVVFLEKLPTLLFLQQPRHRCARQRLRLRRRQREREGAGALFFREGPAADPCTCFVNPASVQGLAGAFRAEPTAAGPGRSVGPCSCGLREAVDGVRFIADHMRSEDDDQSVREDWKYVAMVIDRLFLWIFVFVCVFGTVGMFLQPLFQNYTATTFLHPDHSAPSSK
# Protocol Details: Displacement of [3H]epibatidine from alpha3beta2 nAChR after 4 hrs by liquid scintillation counting analysis
pKi: −log10 of the molar value.
Measured Metric: pKi

Clc1cncc(OCc2cc(OC[C@@H]3CCN3)no2)c1 ... < 5.00

###

# Experimental System: 5-hydroxytryptamine receptor 2C (Homo sapiens)
# Sequence (P28335 whole entry): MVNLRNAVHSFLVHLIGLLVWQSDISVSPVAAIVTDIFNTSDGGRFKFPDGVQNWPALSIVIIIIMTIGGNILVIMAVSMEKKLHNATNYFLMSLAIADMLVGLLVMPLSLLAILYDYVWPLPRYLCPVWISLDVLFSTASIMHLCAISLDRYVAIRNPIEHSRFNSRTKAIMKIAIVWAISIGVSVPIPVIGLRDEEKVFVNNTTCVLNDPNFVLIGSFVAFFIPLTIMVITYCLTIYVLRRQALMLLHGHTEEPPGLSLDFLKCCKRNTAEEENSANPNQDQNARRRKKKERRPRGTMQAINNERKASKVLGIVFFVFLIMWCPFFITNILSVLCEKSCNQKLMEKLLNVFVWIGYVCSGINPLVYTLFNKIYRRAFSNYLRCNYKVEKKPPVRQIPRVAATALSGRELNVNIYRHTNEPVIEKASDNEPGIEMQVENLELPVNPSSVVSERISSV
# Protocol Details: Displacement of [3H]mesulergine from human recombinant 5-HT2C receptor after 1.5 hrs by microbeta scintillation counting analysis
pKi: −log10 of the molar value.
Measured Metric: pKi

c1ccc(OCc2cc(OC[C@@H]3CCN3)no2)cc1 ... < 5.00
c1ccc(OCc2cc(OC[C@@H]3CCCN3)no2)cc1 ... < 5.00

###

# Experimental System: Neuronal acetylcholine receptor; alpha4/beta2 (Rattus norvegicus, UniProt P09483+P12390)
# Sequence (P09483 whole entry): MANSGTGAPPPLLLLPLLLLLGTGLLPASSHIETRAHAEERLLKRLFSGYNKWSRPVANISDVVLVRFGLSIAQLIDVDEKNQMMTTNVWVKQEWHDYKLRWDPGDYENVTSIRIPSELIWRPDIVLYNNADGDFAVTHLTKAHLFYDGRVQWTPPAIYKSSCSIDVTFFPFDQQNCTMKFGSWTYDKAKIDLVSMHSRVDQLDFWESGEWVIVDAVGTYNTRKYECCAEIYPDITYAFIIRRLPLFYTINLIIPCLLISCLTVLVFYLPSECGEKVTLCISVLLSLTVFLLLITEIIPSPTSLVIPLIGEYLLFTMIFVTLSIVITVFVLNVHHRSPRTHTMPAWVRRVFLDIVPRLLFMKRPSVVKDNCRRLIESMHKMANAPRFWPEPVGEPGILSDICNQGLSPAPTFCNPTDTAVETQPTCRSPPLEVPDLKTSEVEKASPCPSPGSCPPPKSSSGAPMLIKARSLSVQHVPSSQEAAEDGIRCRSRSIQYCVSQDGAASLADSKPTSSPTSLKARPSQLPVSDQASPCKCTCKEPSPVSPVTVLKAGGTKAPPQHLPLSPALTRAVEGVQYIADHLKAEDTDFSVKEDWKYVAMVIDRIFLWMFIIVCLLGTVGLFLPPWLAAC
# Sequence (P12390 whole entry): as the sequence (P12390 whole entry) above
# Protocol Details: Displacement of [3H]epibatidine from alpha4beta2* nAChR in rat forebrain after 4 hrs by liquid scintillation counting analysis
pKi: −log10 of the molar value.
Measured Metric: pKi

Clc1cncc(OCc2cc(OC[C@@H]3CCN3)no2)c1 ... < 5.00

###

# Experimental System: Sodium-dependent dopamine transporter (Homo sapiens, UniProt Q01959)
# Sequence (Q01959 whole entry): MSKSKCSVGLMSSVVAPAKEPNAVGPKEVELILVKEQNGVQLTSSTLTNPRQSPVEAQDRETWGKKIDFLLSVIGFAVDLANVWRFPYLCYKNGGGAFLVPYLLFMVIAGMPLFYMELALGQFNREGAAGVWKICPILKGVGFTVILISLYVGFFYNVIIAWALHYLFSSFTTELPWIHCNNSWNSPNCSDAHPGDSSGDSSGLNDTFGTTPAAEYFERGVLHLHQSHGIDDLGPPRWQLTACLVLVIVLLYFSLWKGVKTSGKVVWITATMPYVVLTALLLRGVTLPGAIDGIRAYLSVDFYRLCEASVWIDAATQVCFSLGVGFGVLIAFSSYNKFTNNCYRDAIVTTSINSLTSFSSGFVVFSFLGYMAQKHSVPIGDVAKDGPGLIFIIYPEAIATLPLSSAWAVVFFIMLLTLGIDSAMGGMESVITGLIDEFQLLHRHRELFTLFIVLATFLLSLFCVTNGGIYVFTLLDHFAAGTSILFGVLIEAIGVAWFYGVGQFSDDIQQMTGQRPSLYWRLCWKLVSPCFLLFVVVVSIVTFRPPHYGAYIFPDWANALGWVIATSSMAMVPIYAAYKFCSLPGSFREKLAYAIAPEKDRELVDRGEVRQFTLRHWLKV
# Protocol Details: Displacement of [3H]WIN35428 from human recombinant DAT after 1.5 hrs by microbeta scintillation counting analysis
Measured Metric: Ki

c1ccc(OCc2cc(OC[C@@H]3CCN3)no2)cc1 ... 0.024 µM
c1ccc(OCc2cc(OC[C@@H]3CCCN3)no2)cc1 ... 0.373 µM

###

# Experimental System: Neuronal acetylcholine receptor; alpha4/beta2 (Rattus norvegicus, UniProt P09483+P12390)
# Protocol Details: Displacement of [3H]epibatidine from alpha4beta2 nAChR after 4 hrs by liquid scintillation counting analysis
# Assay type: protein-complex assay
Measured Metric: Ki

Clc1cncc(OCc2cc(OC[C@@H]3CCN3)no2)c1 ... 2220 nM
